# Tested on: Saccharomyces cerevisiae;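 note: PSI is a weighted mean of sequencing reads over stability bins, variants kept only with over 10 reads, mCherry proximal and sfGFP distal, peptide attached via GGGS linker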
# experiment summary: protein stability index of tFT-peptide fusion (C-terminal peptide) (PSI (0-1 scale)); higher = more stable (slower turnover)
# condition label: genetic background: cdc34-1; temperature: 37 C
Use 0.5 as the dividing line for protein stability index, with the line itself on the label 1 side and lower values as label 0.

Q: Evaluate LSFLLLLGCFGS : protein stability index at minimum 0.5?
Result: label 1

Q: Does the reported protein stability index for VLRLLARRHAMV fall at or above the 0.5 mark?
Result: label 1

Q: // inclusive: protein stability index at least 0.5? input: GLVVVVRLQYSP
Result: label 0

Q: Does the sequence FFLSFRLFSILL have recorded protein stability index that is 0.5 or more?
Result: label 0

Q: Has CLNPCVRWDGHV a recorded protein stability index greater than or equal to 0.5?
Result: label 1

Q: Item CHPIPLARLAPT with protein stability index of 0.5 or above?
Result: label 1

Q: Assess whether reported protein stability index for RVWTTVFIIRAT sits at 0.5 or higher.
Result: label 1

Q: Reported protein stability index at or above 0.5? VWWWGAVGWLMV
Result: label 1

Q: Entry KIILMCYTLITL : is its protein stability index no less than 0.5?
Result: label 0

Q: Textbook exercise: given the entry CLEHLVYCRLAS , state whether its protein stability index is greater than or equal to 0.5.
Result: label 0

Q: Check this sequence for protein stability index at or above 0.5: TEHIIAFKASVN
Result: label 1

Q: Can PSSPTPPPSSSP be said to have protein stability index at or above 0.5?
Result: label 1

Q: Check if protein stability index >= 0.5 (inclusive). Item: LCSCMWISAIAI
Result: label 1
